target: T1, human DLL4 extracellular domain protein, His-tagged (R&D System Cat: 1506-D4/CF) (human, UniProt Q9NR61 27-522); experiment: SPR (Biacore T200), hDLL4 immobilized on CM5 chip, antibody as analyte, 1:1 model
T1 construct: range 27-522; Bought protein; also called hDLL4-His; human DLL4-His; not shown: C-terminal histidine tag
T1 sequence (Q9NR61 27-522 limits assumed): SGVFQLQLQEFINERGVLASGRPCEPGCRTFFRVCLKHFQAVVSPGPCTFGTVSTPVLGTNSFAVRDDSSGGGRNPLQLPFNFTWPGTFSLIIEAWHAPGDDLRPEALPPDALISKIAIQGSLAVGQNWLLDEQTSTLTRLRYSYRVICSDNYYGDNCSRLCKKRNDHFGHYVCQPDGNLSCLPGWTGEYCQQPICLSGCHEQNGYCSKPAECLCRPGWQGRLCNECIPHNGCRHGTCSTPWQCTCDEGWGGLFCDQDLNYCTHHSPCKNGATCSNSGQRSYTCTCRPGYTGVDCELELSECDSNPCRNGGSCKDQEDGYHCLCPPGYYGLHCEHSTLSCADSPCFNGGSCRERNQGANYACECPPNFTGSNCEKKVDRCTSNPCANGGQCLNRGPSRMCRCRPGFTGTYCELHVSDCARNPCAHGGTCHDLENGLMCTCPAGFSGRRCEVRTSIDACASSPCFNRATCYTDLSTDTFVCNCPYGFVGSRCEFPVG
Examples of binders with documented Kd follow.
Report the figure in nM without appending any unit label.

Worked cases, Kd given:
1. MLCK-3 (antibody, V domains shown, Human monoclonal antibody from a phage scFv library; Only the variable regions are tied to the clone; In flow cytometry it was detected with an anti-human IgG Fc-specific antibody, so it carries a human Fc; also called anti-DLL4 antibody) VH: EVQLLESGGGLVQPGGSLRLSCAASGFTFSDYAMSWVRQAPGKGLEWVSWIYYDSGSKYYADSVKGRFTISRDNSKNTLYLQMNSLRAEDTAVYYCARADLPFDYWGQGTLVTVSS VL: QSVLTQPPSASGTPGQRVTISCSGSSSNIGNNAVTWYQQLPGTAPKLLIYSDNHRPSGVPDRFSGSKSGTSASLAISGLRSEDEADYYCGTWDASLSGYVFGGGTKLTVL	6.96
2. MLCK-1 (antibody, V domains shown, Human monoclonal antibody from a phage scFv library; Only the variable regions are tied to the clone; In flow cytometry it was detected with an anti-human IgG Fc-specific antibody, so it carries a human Fc; also called anti-DLL4 antibody) VH: EVQLLESGGGLVQPGGSLRLSCAASGFTFSDYAMSWVRQAPGKGLEWVSWIYSDDGNKYYADSVKGRFTISRDNSKNTLYLQMNSLRAEDTAVYYCARADPPFDYWGQGTLVTVSS VL: QSVLTQPPSASGTPGQRVTISCTGSSSNIGSNNVSWYQQLPGTAPKLLIYSDNNRPSGVPDRFSGSKSGTSASLAISGLRSEDEADYYCATWDSSLNGYVFGGGTKLTVL	263
3. MLCK-4 (antibody, V domains shown, Human monoclonal antibody from a phage scFv library; Only the variable regions are tied to the clone; In flow cytometry it was detected with an anti-human IgG Fc-specific antibody, so it carries a human Fc; also called anti-DLL4 antibody) VH: EVQLLESGGGLVQPGGSLRLSCAASGFTFSNYAMSWVRQAPGKGLEWVSWIYHGGGDTYYADSVKGRFTISRDNSKNTLYLQMNSLRAEDTAVYYCARGPNYTFGKPFDYWGQGTLVTVSS VL: QSVLTQPPSASGTPGQRVTISCRGSPSNIGNNTVYWYQQLPGTAPKLLIYSDSQRPSGVPDRFSGSKSGTSASLAISGLRSEDEADYYCGSWDYSLSAYVFGGGTKLTVL	2130

// next entry
Lab note: MLCK-2 (antibody, V domains shown, Human monoclonal antibody from a phage scFv library; Only the variable regions are tied to the clone; In flow cytometry it was detected with an anti-human IgG Fc-specific antibody, so it carries a human Fc; also called MLCK-2 mAb; anti-DLL4 antibody) VH: EVQLLESGGGLVQPGGSLRLSCAASGFTFSDYAMSWVRQAPGKGLEWVSWIYSGSGNKYYADSVKGRFTISRDNSKNTLYLQMNSLRAEDTAVYYCARADWPFDYWGQGTLVTVSS VL: QSVLTQPPSASGTPGQRVTISCTGSSSNIGSNDVTWYQQLPGTAPKLLIYADSKRPSGVPDRFSGSKSGTSASLAISGLRSEDEADYYCGTWDYSLSAYVFGGGTKLTVL gave Kd of 1.71
